tested on: SEM cells; assay: cell viability relative to DMSO control; higher = less cytotoxic; details: RPMI 5 mM glucose + 10% FBS; 48 h; 0.0632 µM
metricName: cell viability (%)
Kindly answer with a numeric value in %, unit omitted.

// query Give cell viability for the following compound: Nc1nc(F)nc2c1ncn2[C@@H]1O[C@H](CO)[C@@H](O)[C@H]1O
// result 115

// query Give cell viability for the following compound: OC(COC1=C2C(=O)\C=C(/OC2=CC=C1)C([O-])=O)COC3=C4C(=O)\C=C(/OC4=CC=C3)C([O-])=O
// result 86.6

// query Give cell viability for the following compound: O=c1[nH]cnc2c1ncn2[C@H]1CC[C@@H](CO)O1
// result 90.8

// query Give cell viability for the following compound: CN(C)CCN(Cc1ccc(Cl)cc1)c1ccccn1.Cl
// result 95.7

// query Give cell viability for the following compound: CC1(C)CC(O)CC(C)(C)N1[O]
// result 98.6

// query Give cell viability for the following compound: CC[C@@]1(O)C[C@H](O[C@H]2C[C@H](N(C)C)[C@H](O[C@H]3C[C@H](O)[C@H](O[C@H]4CCC(=O)[C@H](C)O4)[C@H](C)O3)[C@H](C)O2)c2c(cc3c(c2O)C(=O)c2c(O)cccc2C3=O)[C@H]1C(=O)OC
// result 46.2

// query Give cell viability for the following compound: COC1=CC2=C(C=C1OC)[C@H]3[C@@H](CO2)OC4=C(C=CC5=C4\C=C/C(C)(C)O5)C3=O
// result 78.5

---

system: P12-Ichikawa; experiment: cell viability relative to DMSO control; higher = less cytotoxic; settings: RPMI 5 mM glucose + 10% FBS; 48 h; 0.00702 µM
Exercise: for every item that follows, state its recorded cell viability.
Kindly answer with a numeric value in %, unit omitted.

// query Provide cell viability, system P12-Ichikawa, entry Nc1nc(OCc2ccccc2)c2nc[nH]c2n1
// result 120

// query Provide cell viability, system P12-Ichikawa, entry NCC(=O)Nc1ccc(-n2nc(C(F)(F)F)cc2-c2ccc3c(ccc4ccccc43)c2)cc1
// result 137

// query Provide cell viability, system P12-Ichikawa, entry OC(COC1=C2C(=O)\C=C(/OC2=CC=C1)C([O-])=O)COC3=C4C(=O)\C=C(/OC4=CC=C3)C([O-])=O
// result 97

// query Provide cell viability, system P12-Ichikawa, entry C[S+]([O-])c1ccc(-c2nc(-c3ccc(F)cc3)c(-c3ccncc3)[nH]2)cc1 (configuration not stated)
// result 103

// query Provide cell viability, system P12-Ichikawa, entry COc1ccc2c(c1OC)CN1CCc3cc4c(cc3C1C2)OCO4 (configuration not stated)
// result 92.7

// query Provide cell viability, system P12-Ichikawa, entry CO[C@H]1C[C@@H]2CC[C@@H](C)[C@@](O)(O2)C(=O)C(=O)N2CCCC[C@H]2C(=O)O[C@H]([C@H](C)C[C@@H]2CC[C@@H](OCCO)[C@H](OC)C2)CC(=O)[C@H](C)/C=C(/C)[C@@H](O)[C@@H](OC)C(=O)[C@H](C)C[C@H](C)\C=C/C=C\C=C/1C
// result 89.6

// query Provide cell viability, system P12-Ichikawa, entry O=C1NC(=O)/C(=C/c2cccc(C(F)(F)F)c2)S1
// result 99.8

// query Provide cell viability, system P12-Ichikawa, entry Cc1ccc(C(=O)c2cc(O)c(O)c([N+](=O)[O-])c2)cc1
// result 85.9

// query Provide cell viability, system P12-Ichikawa, entry N\C1=N\C2=C(N=C[N]2COC(CO)CO)C(=O)N1
// result 112

// query Provide cell viability, system P12-Ichikawa, entry NC(=O)c1cccc(N)c1
// result 67.8

// query Provide cell viability, system P12-Ichikawa, entry C#C[C@]1(O)CC[C@H]2[C@@H]3CCc4cc(OC)ccc4[C@H]3CC[C@@]21C
// result 112

// query Provide cell viability, system P12-Ichikawa, entry CCN(CC)CCN1C(=O)\C(=N/C2=CC=CC=C12)CC3=CC=C(OC)C=C3
// result 109

// query Provide cell viability, system P12-Ichikawa, entry CC1(C)CC(O)CC(C)(C)N1[O]
// result 109

// query Provide cell viability, system P12-Ichikawa, entry CN[S+](=O)([O-])CCc1ccc2[nH]cc(C3CCN(C)CC3)c2c1
// result 84.7

// query Provide cell viability, system P12-Ichikawa, entry CCOC1=CC(=CC=C1C/2=N/[C@@](C)(C3=CC=C(Cl)C=C3)[C@](C)(N2C(=O)N4CCN(CC4)CC(=O)N5CCOCC5)C6=CC=C(Cl)C=C6)C(C)(C)C
// result 97.9

// query Provide cell viability, system P12-Ichikawa, entry COC1(C[S+]([O-])c2ccccc2)CCN(CCc2c[nH]c3ccc(F)cc23)CC1 (configuration not stated)
// result 133

// query Provide cell viability, system P12-Ichikawa, entry COc1cc(-c2nn(C3CCC(N4CCN(C(C)=O)CC4)CC3)c3ncnc(N)c23)ccc1NC(=O)c1cc2ccccc2n1C (configuration not stated)
// result 118

// query Provide cell viability, system P12-Ichikawa, entry Cc1c(C(=O)Nc2cccc(C(F)(F)F)c2)cc(-c2ccccc2)n1CCCN1CCOCC1
// result 115

// query Provide cell viability, system P12-Ichikawa, entry N[C@@H](CC(=O)N1CCn2c(nnc2C(F)(F)F)C1)Cc1cc(F)c(F)cc1F
// result 97.3

// query Provide cell viability, system P12-Ichikawa, entry O=[N+]([O-])c1cnc(Sc2nnc(O)n2-c2ccc3c(c2)OCCO3)s1
// result 88

// query Provide cell viability, system P12-Ichikawa, entry CC(C)(C)NC(=O)[C@@H]1CN(Cc2cccnc2)CCN1C[C@@H](O)C[C@@H](Cc1ccccc1)C(=O)N[C@H]1c2ccccc2C[C@H]1O.O=S(=O)(O)O
// result 99.2

// query Provide cell viability, system P12-Ichikawa, entry CC(C)(C)c1cc(C(=O)O)c(NC(=O)Nc2ccc3[nH]ncc3c2)s1
// result 92.4

---

tested on: P12-Ichikawa; experiment: cell viability relative to DMSO control; higher = less cytotoxic; settings: HPLM + 10% dialyzed FBS; 48 h; 0.0211 µM
metricName: cell viability (%)
Kindly answer with a numeric value in %, unit omitted.

// query Provide cell viability, system P12-Ichikawa, entry CC1(C)CC(O)CC(C)(C)N1[O]
// result 118

// query Provide cell viability, system P12-Ichikawa, entry CCOC(=O)[C@H](CCc1ccccc1)N[C@@H](C)C(=O)N1[C@H](C(=O)O)C[C@@H]2CCC[C@@H]21
// result 124

// query Provide cell viability, system P12-Ichikawa, entry COC1(C[S+]([O-])c2ccccc2)CCN(CCc2c[nH]c3ccc(F)cc23)CC1 (stereo not given)
// result 114

// query Provide cell viability, system P12-Ichikawa, entry C[C@@H]1CC[C@@]2(OC1)OC1CC3C4CC=C5CC(O)CCC5(C)C4CCC3(C)C1[C@@H]2C (stereo not given in full)
// result 104

// query Provide cell viability, system P12-Ichikawa, entry CN(C)c1ccc2cc(C(=O)N[C@@H](CCCNC(=N)CCl)C(=O)NCc3ccccc3)ccc2c1
// result 113

---

Exercise: for every item that follows, state its recorded AUC of viability dose-response curve.
test system: NOMO1; test: AUC of viability dose-response curve (% viability x log10 dose units); higher = less sensitive; conditions: RPMI 5 mM glucose + 10% dialyzed FBS; 48 h
// return a plain number; no unit text

// query Give AUC of viability dose-response curve for the following molecule: Cl.Nc1ccn([C@@H]2O[C@H](CO)[C@@H](O)C2(F)F)c(=O)n1
// result 248

// query Give AUC of viability dose-response curve for the following molecule: C[S+]([O-])c1ccc(-c2nc(-c3ccc(F)cc3)c(-c3ccncc3)[nH]2)cc1 (stereo not given)
// result 334

// query Give AUC of viability dose-response curve for the following molecule: CN(C)CCCNC(=O)c1ccc(-c2cc(O)c3ncccc3c2)cc1
// result 463

// query Give AUC of viability dose-response curve for the following molecule: NC(=O)c1cccc(N)c1
// result 465

// query Give AUC of viability dose-response curve for the following molecule: CC[C@@]1([C@@H]2O[C@@H]([C@H]3O[C@@](O)(CO)[C@H](C)C[C@@H]3C)C[C@@H]2C)CC[C@H]([C@]2(C)CC[C@]3(C[C@H](O)[C@@H](C)[C@@H]([C@@H](C)[C@@H](OC)[C@H](C)C(=O)[O-])O3)O2)O1
// result 393

// query Give AUC of viability dose-response curve for the following molecule: OC(COC1=C2C(=O)\C=C(/OC2=CC=C1)C([O-])=O)COC3=C4C(=O)\C=C(/OC4=CC=C3)C([O-])=O
// result 394

// query Give AUC of viability dose-response curve for the following molecule: COc1cccc2c1C(=O)c1c(O)c3c(c(O)c1C2=O)C[C@@](O)(C(C)=O)C[C@@H]3O[C@H]1C[C@H](N)[C@H](O)[C@H](C)O1
// result 259

// query Give AUC of viability dose-response curve for the following molecule: Clc1ccccc1CN1CCc2sccc2C1
// result 322

// query Give AUC of viability dose-response curve for the following molecule: Cc1ncc([N+](=O)[O-])n1CCO
// result 461

// query Give AUC of viability dose-response curve for the following molecule: CC1=C(CC/C(C)=C/CCC2=CCC(C3=CC(=O)OC3O)OC2O)C(C)(C)CCC1 (stereo not given)
// result 466

// query Give AUC of viability dose-response curve for the following molecule: OC1=CC=C(C=C1)\C2=C\C(=O)C3=C(O2)C=C(O)C=C3O
// result 448

// query Give AUC of viability dose-response curve for the following molecule: O=[N+]([O-])c1cnc(Sc2nnc(O)n2-c2ccc3c(c2)OCCO3)s1
// result 375

// query Give AUC of viability dose-response curve for the following molecule: NC(=O)Nc1cc(-c2ccc(CN3CCOCC3)cc2)sc1C(N)=O
// result 338

// query Give AUC of viability dose-response curve for the following molecule: Nc1cc(c(cc1S(=O)(N)=O)S(N)(=O)=O)C(/Cl)=C(/Cl)Cl
// result 406

// query Give AUC of viability dose-response curve for the following molecule: CCCCCCCCCCCCCCCCCCOP(=O)([O-])OC1CC[N+](C)(C)CC1
// result 467

// query Give AUC of viability dose-response curve for the following molecule: CCN(C)C(=O)Oc1cccc([C@H](C)N(C)C)c1
// result 474

// query Give AUC of viability dose-response curve for the following molecule: CC(C)(C)NC(=O)[C@H]1CC[C@H]2[C@@H]3CC[C@H]4NC(=O)\C=C/[C@]4(C)[C@H]3CC[C@]12C
// result 383

// query Give AUC of viability dose-response curve for the following molecule: CC(=O)[C@H]1CC[C@H]2[C@@H]3CCC4=CC(=O)CC[C@]4(C)[C@H]3CC[C@]12C
// result 433

// query Give AUC of viability dose-response curve for the following molecule: COC(=O)[C@@H](N)CCCNC(=N)N[N+](=O)[O-]
// result 461

// query Give AUC of viability dose-response curve for the following molecule: Oc1cc(O)cc(/C=C/c2ccc(O)c(O)c2)c1
// result 431

// query Give AUC of viability dose-response curve for the following molecule: O=C1NC(=O)/C(=C/c2cccc(C(F)(F)F)c2)S1
// result 463

// query Give AUC of viability dose-response curve for the following molecule: CNCC(O)C(O)C(O)C(O)CO.O=C(O)c1ccc(-c2cc3cccnc3c(-c3ccc4nonc4c3)n2)cc1
// result 469

// query Give AUC of viability dose-response curve for the following molecule: CN[C@@H]1C[C@H]2O[C@@](C)([C@@H]1OC)n1c3ccccc3c3c4c(c5c6ccccc6n2c5c31)C(=O)N[C@H]4O
// result 289

// query Give AUC of viability dose-response curve for the following molecule: CN(C)C[C@@H]1CC[N]2C=C(C3=C2C=CC=C3)C/4=C(/C(=O)NC4=O)C5=C[N](CCO1)C6=C5C=CC=C6
// result 425

// query Give AUC of viability dose-response curve for the following molecule: Cc1cc(O)c2c(c1)C(=O)c1cc(O)cc(O)c1C2=O
// result 454
